# Test system: OVCAR-8 ovarian
# experiment_notes: NCI-60 one-dose screen, 48 h
# condition_context: 10 µM unless noted
The panel holds about 83,000 compounds, 20% with a hit somewhere; the sample as a whole holds those more often. The source made the active and inactive calls. Rule for the calls: active = growth percent below 10; inactive = the rest.
Returns: one label drawn from active, inactive

Which result was noted for this compound in the test: "COc1ccc(-c2c3c(N)nc(-c4ccncc4)nc3nc3c2c(C)nn3-c2ccccc2)cc1"
inactive

How was "COc1ccc2ncccc2c1Cc1c(OC)ccc2ncccc12" classified in this test?
inactive

So what was the verdict on "O=C1c2cc3c(cc2-c2c1c1ccc(Cl)cc1c(=O)n2CCCNCCO)OCO3" in this test?
active

Just curious, what result did CC(=O)N1N=C(c2ccc(C(F)(F)F)cc2)CC1c1ccc2c(c1)OCO2 (stereo not given) get here?
inactive

What call does the record list for "Nc1ccc(N=Nc2ccccc2)cc1[N+](=O)[O-]" ?
inactive

Give the logged outcome of this assay for the following compound: "c1ccc(-c2nc(Nc3nccnn3)c3ccccc3n2)cc1"
inactive

Tell me the recorded outcome of this test for COc1ccc(C2=NN(C=O)C(c3cccc(Nc4ccnc5cc(Cl)ccc45)c3)C2)cc1 (stereo not given) .
inactive

Can you look up the reported call for "CCCCCCCC[Si](OCC)(OCC)OCC" for me?
inactive

In this assay, the call recorded for "CCOc1cc(CCNS(=O)(=O)c2ccc(C)cc2)c(C(C)=O)cc1OCC" was what?
inactive

What is the recorded call for this compound in the test? "CC(C)Cn1cnc2c(NCn3nc(-c4cc(Cl)cc(Cl)c4Cl)n(/N=C/c4ccc(Cl)cc4)c3=S)nc3ccccc3c21"
inactive

Reference for the values: PubChem BioAssay (NCI)
